Data origin: patent EP0776896A1

measured.target: muscarinic receptors (M1-site, pirenzepine sensitive site) (Rattus norvegicus)
Construct: Fresh cortex (0.1-1 9) from male Wistar rats (150-200 g) is homogenized; from tissue; host or cells: rat cerebral cortex membranes
assay.explanation: Inhibition of ^3HPRZ (pirenzepine) binding to rat cerebral cortex membranes
Set-up: species or system male Wistar rats
cond: ^3HPRZ IC50,nM, 1.0 nM ^3HPRZ, 60 min at 20°C
recorded.endpoint: IC50
Answer shape: numeric part, then the unit.

Lab note: measured IC50 of CCCCCSc1nsnc1C1CC2CCC1NC2 (stereo not shown) [Compound 15] was 5 nM

Lab note: measured IC50 of N#Cc1ccc(CSc2nsnc2C2CC3CCC2NC3)cc1 (stereo not shown) [Compound 24] was 91 nM

Lab note: measured IC50 of N#Cc1ccc(CSc2nsnc2C2CC3CCC2NC3)cc1 (stereo not shown) [Compound 23] was 36 nM

Lab note: measured IC50 of CCCCCSc1nsnc1C1CC2CCC1NC2 (stereo not shown) [Compound 16] was 45 nM

---

Task for the reader: assign each of the following molecules its reported log10 of IC50.
measured.target: muscarinic acetylcholine receptors
assay.explanation: Inhibition of specific binding of ^3H-Oxotremorine-M to rat cortex homogenate
cond: 1.0 nM ^3H-Oxotremorine, 30 min at 25°C, read-out: ^3H-Oxo-M IC50
Procedure: The pharmacological properties of the compounds of the invention can be illustrated by determining their capability to inhibit the specific binding of ^3H-Oxotremorine-M (^3H-Oxo). Birdsdall N.J.M., Hulme E.C., and Burgen A.S.V. (1980). […] ^3H-Oxo labels muscarinic receptor in the CNS (with a preference for agonist domains of the receptors). […] Using the present experimental conditions only the high and medium affinity sites are determined. […]
Response schema: value (number) is log10 of IC50 in units of nM.

Lab note: measured log10 of IC50 of CCCSc1nsnc1C1CC2CCC1NC2 (centres unmarked) was 0.61

Lab note: measured log10 of IC50 of N#Cc1ccc(CSc2nsnc2C2CC3CCC2NC3)cc1 (centres unmarked) [Compound 24] was 1.78

Lab note: measured log10 of IC50 of N#Cc1ccc(CSc2nsnc2C2CC3CCC2NC3)cc1 (centres unmarked) [Compound 23] was 1.41

Lab note: measured log10 of IC50 of CCCCOc1nsnc1C1CC2CCC1NC2 (single isomer, unassigned) [Compound 5] was 2.16

Lab note: measured log10 of IC50 of CCCCSc1nsnc1C1CC2CCC1NC2 (centres unmarked) was 0.30

Lab note: measured log10 of IC50 of CCCCOc1nsnc1C1CC2CCC1NC2 (single isomer, unassigned) [Compound 4] was 0.62

Lab note: measured log10 of IC50 of CCCOc1nsnc1C1CC2CCC1NC2 (centres unmarked) was 2.42

Lab note: measured log10 of IC50 of CCCCCSc1nsnc1C1CC2CCC1NC2 (centres unmarked) [Compound 15] was 0.53

Lab note: measured log10 of IC50 of CSc1nsnc1C1CC2CCC1NC2 (centres unmarked) [Compound 19] was 1.26

Lab note: measured log10 of IC50 of CCCCCSc1nsnc1C1CC2CCC1NC2 (centres unmarked) [Compound 16] was 1.92

Lab note: measured log10 of IC50 of CSc1nsnc1C1CC2CCC1NC2 (centres unmarked) [Compound 14] was 2.84

---

measured.target: muscarinic receptors (M1-site, pirenzepine sensitive site) (Rattus norvegicus, UniProt P08482)
Construct: Fresh cortex (0.1-1 9) from male Wistar rats (150-200 g) is homogenized; from tissue; host or cells: rat cerebral cortex membranes
Sequence (P08482 whole entry): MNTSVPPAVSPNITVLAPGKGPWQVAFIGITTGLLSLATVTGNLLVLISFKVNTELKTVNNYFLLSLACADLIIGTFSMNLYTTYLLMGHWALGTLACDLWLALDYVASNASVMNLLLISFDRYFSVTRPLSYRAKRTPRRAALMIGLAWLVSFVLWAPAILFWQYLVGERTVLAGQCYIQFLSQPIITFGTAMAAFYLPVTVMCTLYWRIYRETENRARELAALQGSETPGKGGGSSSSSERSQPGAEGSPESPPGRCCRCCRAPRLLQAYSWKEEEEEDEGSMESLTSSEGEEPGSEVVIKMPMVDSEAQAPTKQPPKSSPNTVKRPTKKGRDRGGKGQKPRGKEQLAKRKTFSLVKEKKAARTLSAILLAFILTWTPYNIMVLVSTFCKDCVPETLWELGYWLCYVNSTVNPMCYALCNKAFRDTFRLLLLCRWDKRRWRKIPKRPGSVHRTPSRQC
assay.explanation: Inhibition of ^3HPRZ (pirenzepine) binding to rat cerebral cortex membranes
Parameters: species or system male Wistar rats
cond: 1.0 nM ^3HPRZ, 60 min at 20°C, read-out: ^3HPRZ IC50
pIC50: −log10 of the molar value.
The following ranges of pIC50 define the classes used here: b0 = under 7, b1 = from 7 up to 8, b2 = 8 and over

Assign a category based on measured pIC50 for FC(F)(F)c1ccc(COc2nsnc2C2CC3CCC2NC3)cc1 (stereo not drawn) [Compound 32] and give only the class name.
b0

Assign a category based on measured pIC50 for N#Cc1ccc(CSc2nsnc2C2CC3CCC2NC3)s1 (stereo not drawn) [Compound 26] and give only the class name.
b1

Assign a category based on measured pIC50 for CCCCCCOc1nsnc1C1CC2CCC1N(C)C2 (single isomer, unassigned) [Compound 7] and give only the class name.
b1

Assign a category based on measured pIC50 for FC(F)(F)c1ccc(CSc2nsnc2C2CC3CCC2NC3)cc1 (stereo not drawn) [Compound 22] and give only the class name.
b0

Assign a category based on measured pIC50 for FC(F)(F)CCCSc1nsnc1C1CC2CCC1NC2 (stereo not drawn) [Compound 20] and give only the class name.
b2

Assign a category based on measured pIC50 for CCCCCCOc1nsnc1C1CC2CCC1N(C)C2 (single isomer, unassigned) [Compound 8] and give only the class name.
b1

Assign a category based on measured pIC50 for FC(F)(F)c1ccc(COc2nsnc2C2CC3CCC2NC3)cc1 (stereo not drawn) [Compound 33] and give only the class name.
b0

Assign a category based on measured pIC50 for CSc1nsnc1C1CC2CCC1NC2 (stereo not drawn) [Compound 14] and give only the class name.
b0

Assign a category based on measured pIC50 for CCCCSc1nsnc1C1CC2CCC1NC2 (stereo not drawn) [Compound 9] and give only the class name.
b2

Assign a category based on measured pIC50 for CCCOc1nsnc1C1CC2CCC1NC2 (stereo not drawn) [Compound 13] and give only the class name.
b0

Assign a category based on measured pIC50 for CCCCCCSc1nsnc1C1CC2CCC1NC2 (stereo not drawn) [Compound 27] and give only the class name.
b2

Assign a category based on measured pIC50 for CC(C)CCCSc1nsnc1C1CC2CCC1NC2 (stereo not drawn) [Compound 17] and give only the class name.
b0
